Sourced from BigSolDB 2.1

# conditionInfo: in DMSO, 318.15 K
readout: solubility (mole fraction)
// keep it numeric: no unit symbol after the value

Report solubility (mole fraction), nothing else, for this compound: O=Cc1cc(Br)c(O)c(Br)c1
0.0174

* * *

# conditionInfo: in n-propanol, 323.15 K
readout: solubility (mole fraction)
// keep it numeric: no unit symbol after the value

Report solubility (mole fraction), nothing else, for this compound: O=Cc1cc(Br)c(O)c(Br)c1
0.0118

* * *

# conditionInfo: in acetonitrile, 318.15 K
readout: solubility (mole fraction)
// keep it numeric: no unit symbol after the value

Report solubility (mole fraction), nothing else, for this compound: O=Cc1cc(Br)c(O)c(Br)c1
0.00734

* * *

# conditionInfo: in cyclohexane, 298.15 K
readout: solubility (mole fraction)
// keep it numeric: no unit symbol after the value

Report solubility (mole fraction), nothing else, for this molecule: O=Cc1cc(Br)c(O)c(Br)c1
0.000513

* * *

# conditionInfo: in isobutanol, 313.15 K
readout: solubility (mole fraction)
// keep it numeric: no unit symbol after the value

Report solubility (mole fraction), nothing else, for this compound: O=Cc1cc(Br)c(O)c(Br)c1
0.01

* * *

# conditionInfo: in ethylene glycol, 308.15 K
readout: solubility (mole fraction)
// keep it numeric: no unit symbol after the value

Report solubility (mole fraction), nothing else, for this molecule: O=Cc1cc(Br)c(O)c(Br)c1
0.00675

* * *

# conditionInfo: in water, 298.15 K
readout: solubility (mole fraction)
// keep it numeric: no unit symbol after the value

Report solubility (mole fraction), nothing else, for this compound: O=Cc1cc(Br)c(O)c(Br)c1
0.000131

* * *

# conditionInfo: in ethanol, 278.15 K
readout: solubility (mole fraction)

Report solubility (mole fraction), nothing else, for this compound: O=Cc1cc(Br)c(O)c(Br)c1
0.00281

* * *

# conditionInfo: in isopropanol, 298.15 K
readout: solubility (mole fraction)

Report solubility (mole fraction), nothing else, for this compound: O=Cc1cc(Br)c(O)c(Br)c1
0.00542

* * *

# conditionInfo: in methanol, 278.15 K
readout: solubility (mole fraction)
// keep it numeric: no unit symbol after the value

Report solubility (mole fraction), nothing else, for this compound: O=Cc1cc(Br)c(O)c(Br)c1
0.00195

* * *

# conditionInfo: in ethanol, 308.15 K
readout: solubility (mole fraction)
// keep it numeric: no unit symbol after the value

Report solubility (mole fraction), nothing else, for this compound: O=Cc1cc(Br)c(O)c(Br)c1
0.00646

* * *

# conditionInfo: in DMSO, 298.15 K
readout: solubility (mole fraction)

Report solubility (mole fraction), nothing else, for this compound: O=Cc1cc(Br)c(O)c(Br)c1
0.0101

* * *

# conditionInfo: in ethanol, 303.15 K
readout: solubility (mole fraction)
// keep it numeric: no unit symbol after the value

Report solubility (mole fraction), nothing else, for this compound: O=Cc1cc(Br)c(O)c(Br)c1
0.00555

* * *

# conditionInfo: in methanol, 308.15 K
readout: solubility (mole fraction)
// keep it numeric: no unit symbol after the value

Report solubility (mole fraction), nothing else, for this molecule: O=Cc1cc(Br)c(O)c(Br)c1
0.00457

* * *

# conditionInfo: in acetonitrile, 288.15 K
readout: solubility (mole fraction)
// keep it numeric: no unit symbol after the value

Report solubility (mole fraction), nothing else, for this compound: O=Cc1cc(Br)c(O)c(Br)c1
0.00277
